The reported numbers originate from patent US20070265270A1.

target: mPDE10A7 (Mus musculus, UniProt Q8CA95); test: mPDE10A7 enzyme inhibition (IMAP fluorescence polarization); type: biochemical; conditions: Table 3; fluorescein labeled cAMP or cGMP substrate
quantity_measured: IC50 (nM)

• COc1cc2nncc(N3CCNC(c4ccc(N(C)C)cc4)C3)c2cc1OC (racemic) = 1.6
• COc1cc2nncc(N3CCOC(c4ccc(C)cc4F)C3)c2cc1OC (racemic) = 57.8

(I) COc1cc2nncc(-n3ncc4c(N5CCN(CC6CC6)CC5)cccc43)c2cc1OC
(II) COc1ccc2cc(C3CN(c4cnnc5cc(OC)c(OC)cc45)CCN3)ccc2c1 (racemic)
Higher IC50 between I and II ? Lab note: record the label of whichever item you select.
I
(I: 63.1 nM, II: 1.33 nM)

---

molecular target: mPDE10A7 (Mus musculus); experiment: mPDE10A7 enzyme inhibition (IMAP fluorescence polarization); type: biochemical; conditions: Table 3; fluorescein labeled cAMP or cGMP substrate
pIC50: −log10 of the molar value.
quantity_measured: pIC50

Use these answered entries as a reference point.
• COc1ccc(N2CCC=C(c3cnnc4cc(OC)c(OC)cc34)C2)cc1 [Cpd 101] = 8.19
• COc1cc2nncc(-n3ncc4ccc(N5CCOCC5)cc43)c2cc1OC [Cpd 21] = 6.26
• COc1cc2nncc(N3CCOC(c4ccc(OC(F)(F)F)cc4)C3)c2cc1OC (racemic) [Cpd 63] = 7.53
• COc1ccc(CNC2CCN(c3cnnc4cc(OC)c(OC)cc34)CC2)cc1 [Cpd 78] = 5.86

(A) COc1cc2nncc(N3CC(c4ccc(Cl)cc4)OCC3=O)c2cc1OC (racemic) [Cpd 40]
(B) COc1cc2nncc(N3CCNC(c4cccs4)C3)c2cc1OC (racemic) [Cpd 93]
Higher pIC50 between A and B ? Lab note: record the label of whichever item you select.
B

(a) COc1cc2nncc(-n3ncc4c(N5CCN(C(C)=O)CC5)cccc43)c2cc1OC [Cpd 106]
(b) COc1cc2nncc(N3CCCC(N(C)C(=O)c4ccccc4)C3)c2cc1OC (centres unmarked) [Cpd 107]
(c) COc1cc2nncc(N3CCCC(C(=O)N4CCCCC4)C3)c2cc1OC (racemic) [Cpd 39]
(d) COc1ccc(CC2CCN(c3cnnc4cc(OC)c(OC)cc34)C2)cc1 (racemic) [Cpd 98]
(e) CC[C@@H]1CN(c2cnnc3cc(OC)c(OC)cc23)C[C@@H](c2ccc(OC)cc2)O1 (racemic) [Cpd 100]
Ordering criterion: pIC50; begin with the maximum. Field: ranking. Enter the labels in the order requested.
e, a, d, b, c

(P) COc1cc(OC)cc(C(=O)NC2CCCN(c3cnnc4cc(OC)c(OC)cc34)C2)c1 (racemic) [Cpd 121]
(Q) COc1ccc(C2CN(c3cnnc4cc(OC)c(OC)cc34)CC(=O)N2C)cc1 (racemic) [Cpd 65]
Higher pIC50 between P and Q ? Lab note: record the label of whichever item you select.
P
(P: 7.79, Q: 7.34)

(P) COc1cc2nncc(N3CCCC(C(=O)N4CCCC4)C3)c2cc1OC (racemic) [Cpd 32]
(Q) COc1cc2nncc(N3CCCC(Oc4ccccc4)C3)c2cc1OC (racemic) [Cpd 37]
(R) COc1cc2nncc(N3CCCC(NC(=O)c4ccccc4F)C3)c2cc1OC (racemic) [Cpd 102]
(S) COc1cc2nncc(N3CCC[C@@H](c4ccccc4F)C3)c2cc1OC [Cpd 67]
Task for the reader: rank each entry by its pIC50, from the minimum upward. Field: ranking. Enter the labels in the order requested.
P, Q, R, S

---

Molecular target: mPDE10A7 (Mus musculus, UniProt Q8CA95)
Sequence (Q8CA95 446-763 limits assumed): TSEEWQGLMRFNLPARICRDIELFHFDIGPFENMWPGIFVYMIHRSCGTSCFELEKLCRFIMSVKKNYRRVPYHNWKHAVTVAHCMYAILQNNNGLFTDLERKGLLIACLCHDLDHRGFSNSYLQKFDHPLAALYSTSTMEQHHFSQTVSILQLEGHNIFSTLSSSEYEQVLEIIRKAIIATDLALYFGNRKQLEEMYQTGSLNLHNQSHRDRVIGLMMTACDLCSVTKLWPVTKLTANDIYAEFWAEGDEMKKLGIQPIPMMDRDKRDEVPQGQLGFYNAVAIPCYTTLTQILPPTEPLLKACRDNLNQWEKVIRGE
Assay: mPDE10A7 enzyme inhibition (IMAP fluorescence polarization)
Format: biochemical
Settings: Table 3; fluorescein labeled cAMP or cGMP substrate
Protocol: Enzyme Activity: To analyze the enzyme activity, 5 μL of serial diluted mPDE10A7 containing lysate were incubated with equal volumes of diluted (100-fold) fluorescein labeled cAMP or cGMP for 30 minutes in MDC HE 96-well assay plates at room temperature. […] The plates were counted in an Analyst GT (Molecular Devices) for fluorescence polarization. […] Data were analyzed with SoftMax Pro. […]
quantity_measured: IC50 (nM)

- COc1cc2nncc(-c3ccc4c(c3)OCCN4C)c2cc1OC: 23
- COc1cc2nncc(N3CCCC(CN4CCCC4=O)C3)c2cc1OC (racemic): 337
- COc1cccc(C2CN(c3cnnc4cc(OC)c(OC)cc34)C(=O)CO2)c1 (racemic): 310

(P) COCCOc1ccc2cnn(-c3cnnc4cc(OC)c(OC)cc34)c2c1
(Q) COc1cc2nncc(N3CCC(N4CCCC4=O)CC3)c2cc1OC
(R) COc1cc2nncc(N3CCOC(c4ccc5c(c4)CCO5)C3)c2cc1OC (racemic)
Task for the reader: rank each entry by its IC50, from the minimum upward. Field: ranking. Enter the labels in the order requested.
R, P, Q
(R: 6.49 nM, P: 140 nM, Q: 286 nM)
